Exercise: for every item that follows, state its recorded pEC50.
# Tested on: Plasmodium falciparum
# PROTOCOL_TEXT: NOVARTIS: Inhibition of Plasmodium falciparum W2 (drug-resistant) proliferation in erythrocyte-based infection assay
# Type: functional, organism-based
# CONDITION_NOTES: Plasmodium falciparum, W2; read-out: EC50
On this scale, pEC50 is minus log10 of a concentration expressed in M (mol/L).

Qu. Please report the recorded pEC50 for Cn1cc(C(c2cccs2)c2cn(C)c3ccccc23)c2ccccc21 .
Ans. 6.21

Qu. Please report the recorded pEC50 for CCCCNC(=O)CSCc1cnn(-c2ccccc2)c1-n1cccc1 .
Ans. 6.59

Qu. Please report the recorded pEC50 for CCN1/C(=C/c2cccc[n+]2C)C=Cc2ccc(C)cc21 .
Ans. 6.48

Qu. Please report the recorded pEC50 for CC(=O)Nc1ccc(S(=O)(=O)Nc2ccccc2[N+](=O)[O-])cc1 .
Ans. 5.85

Qu. Please report the recorded pEC50 for CC1=C(C(=O)OC2CCCCC2)C(c2cccc([N+](=O)[O-])c2)C2=C(CCCC2=O)N1 (stereo unspecified) .
Ans. 5.88

Qu. Please report the recorded pEC50 for OC(CNCC1CCCO1)Cn1c2ccc(Br)cc2c2cc(Br)ccc21 (stereo unspecified) .
Ans. 7.00

Qu. Please report the recorded pEC50 for O=[N+]([O-])c1cc(C(F)(F)F)ccc1N1CCCN(C(=S)Nc2cccc(C(F)(F)F)c2)CC1 .
Ans. 6.89

Qu. Please report the recorded pEC50 for COc1ccc(C2CC(=O)C3=C(C2)NC(C)=C(C(=O)OC2CCCC2)C3c2ccccc2C)cc1OC (stereo unspecified) .
Ans. 7.88

Qu. Please report the recorded pEC50 for O=C(Nc1c2ccccc2nc2ccccc12)c1cc(Cl)ccc1O .
Ans. 6.32

Qu. Please report the recorded pEC50 for COC(=O)[C@@H]1C[C@@H](NC(=O)c2ccc(OC)cc2OC)CN1Cc1ccc(C)cc1C .
Ans. 6.90

Qu. Please report the recorded pEC50 for CCC(C)(C)c1ccc(OCCOCC[n+]2ccccc2)c(C(C)(C)CC)c1 .
Ans. 6.07

Qu. Please report the recorded pEC50 for CC(C)CNCc1cc(-c2ccc(F)cc2)ccc1O .
Ans. 8.00

Qu. Please report the recorded pEC50 for CCCN(CCC)C1=CC(=O)C(C(C)(C)C)=CC1=O .
Ans. 6.77

Qu. Please report the recorded pEC50 for COCCN1C(=O)C(O)=C(C(=O)c2ccccc2)C1c1ccccc1[N+](=O)[O-] (stereo unspecified) .
Ans. 5.77

Qu. Please report the recorded pEC50 for CC(C)(C)NCC(O)COc1cccc2oc3ccccc3c12 (stereo unspecified) .
Ans. 6.19

Qu. Please report the recorded pEC50 for COc1cc(NC(C)CCCN(Cc2ccccc2OC)C(=O)C(Cl)Cl)c2ncccc2c1 (stereo unspecified) .
Ans. 6.26

Qu. Please report the recorded pEC50 for CCCN(CCC)S(=O)(=O)c1cc(Br)cc2c1N(C(=O)CC)CC2 .
Ans. 6.12
